# System: MDA-MB-468 breast
# assay comment: NCI-60 one-dose screen, 48 h (100 = growth as untreated, 0 = no growth, -100 = all killed)
# protocol conditions: 10 µM unless noted
About 83,000 compounds went through this panel and 20% of them were active in at least one assay; those are over-represented in the sample as a whole.
Measured growth of individual entries
Field format: number, assumed %, no unit text.

The examples below pair each entry with its known result.
CCOC(=O)C(N=Nc1ccc(S(=O)(=O)N=C(N)N)cc1)C(C)=O (centres undefined) :: 92.9
COc1cc(C2CC(c3cc(OC)c(OC)c(OC)c3)=Nc3c(N)nc(N)nc3N2)ccc1Oc1nc(NCCO)nc(N2CCOCC2)n1 (centres undefined) :: 81.2
O=C1N/C(=N\c2nccs2)S/C1=C\C=C/c1ccccc1 :: 44.2
CN(C)CCOc1ccc(C(=O)C2[C@H](c3ccc(Cl)cc3)[C@@H](c3ccccc3)NC23C(=O)Nc2ccc(Br)cc23)cc1 (some centres undefined) :: -84.7
O=C(COc1ccc(NC(=O)Nc2ccc(Cl)c(Cl)c2)cc1)N=Nc1c(O)[nH]c2ccccc12 :: -47.7

Quick one: growth for CCN(CC)c1ccnc(CNCCSC(c2ccccc2)(c2ccccc2)c2ccc(OC)cc2)c1 ?
-64.1

Would you mind telling me what growth value was observed for NS(=O)(=O)c1ccc(-n2cc(-c3cccc(NC(=O)c4cc(Cl)cc(Cl)c4)c3)nn2)cc1 ?
72.8

What growth value was documented for this molecule, CCCSc1nc(Nc2ccc(S(N)(=O)=O)cc2)c(C#N)c(-c2cc(OC)c(OC)c(OC)c2)n1 ?
30.5

Return reported growth; argument: O=c1oc2ccccc2cc1-c1csc(N2N=C(c3ccccc3)CC2c2ccc(N3CCOCC3)cc2)n1 (centres undefined)
99.7
